These measurements were taken from patent US11311513B2.

Experiment: in vivo
Design: species or system C57BL/6 mice
Conditions: C57BL/6, mouse, ip, 15 mg/kg
measured quantity: half-life (h)
Express the result in h but write the number alone.

Reported half-life, molecule CC(C)(C)c1cc(C(c2cc3c(cc2O)OCO3)N2CCOCC2)cc(C(C)(C)C)c1O (stereo not shown) [UC-514321] : ____ 11

----------
System: MONOMAC-6, THP-1, KOCL-48 and KASUMI-1 cells
Experiment: MTS cell viability, four TET1-high AML cell lines together
Format: cell-based
Details: average over the cell lines; unit inferred
measured quantity: pIC50
pIC50 is defined as minus the log10 of a concentration measured in mol/L.

Reported pIC50, molecule COc1cc(C(c2cc3c(cc2O)OCO3)N2CCCC2)cc(OC)c1OC (stereo not shown) [NSC-370284] : ____ 8.01

----------
Experiment: in vivo
Design: species or system C57BL/6 mice
Conditions: C57BL/6, mouse, ip, 15 mg/kg
measured quantity: MRT

Reported MRT, compound CC(C)(C)c1cc(C(c2cc3c(cc2O)OCO3)N2CCOCC2)cc(C(C)(C)C)c1O (stereo not shown) [UC-514321] : ____ 16.1 h

----------
Test: Maximum tolerated dose and median lethal dose
Format: in vivo
Settings: C57BL/6, mouse, in vivo, ip; mice, I.P.; read-out: maximum tolerated dose
measured quantity: MTD

Reported MTD, compound COc1cc(C(c2cc3c(cc2O)OCO3)N2CCCC2)cc(OC)c1OC (stereo not shown) : ____ 65 to 85.6 mg/kg
